Below, each entry is listed with its recorded cytotoxicity at 10 µM.
- Protocol description: Toxicity liver stage against HepG2, at 10uM
- Format: cell-based
- Parameters: test concentration 10 uM, cell line HepG2-A16-CD81EGFP
- Study conditions: human, HepG2-A16-CD81EGFP cells; read-out: INHIBITION
Measured property: cytotoxicity at 10 µM (%)

>>> measured_value("O=C1NCCCc2[nH]c(Cc3ccc(F)cc3)nc21")
-20.9
>>> measured_value("c1cc(CCN2CCN(c3ccc4nncn4n3)CC2)ccn1")
4.76
>>> measured_value("CCC(NC(=O)c1coc(COc2cccc(F)c2F)n1)C(=O)NC (stereo not drawn)")
1.03
>>> measured_value("COCCO[C@H]1CCN(C(=O)C2CCOCC2)[C@H]1Cc1ccncc1")
4.32
>>> measured_value("Cn1ncc2c1C(COCC1CC1)CN(C(=O)c1ccoc1)C2 (stereo not drawn)")
-2.18
>>> measured_value("Cc1ncsc1CCN(C)C(=O)CN1CCCCC1=O")
-14.8
>>> measured_value("O=C(NCCc1nc(-c2ccccn2)no1)c1ccc(C2CCCO2)s1 (stereo not drawn)")
5.65
>>> measured_value("Cc1c(CCC(=O)Nc2ccc(Br)cn2)cnn1C")
-6.14
>>> measured_value("CCn1cc(NC(=O)NCCc2ccc3c(c2)OCCO3)cn1")
-7.72
>>> measured_value("CC(c1ccc2c(c1)OCO2)n1cc2nc(N(C)C)[nH]cc-2c1=O (stereo not drawn)")
-2.72
>>> measured_value("CCn1cc(C(=O)NCCc2nc(-c3ccc(C)cc3)n[nH]2)c(C)n1")
9.03
>>> measured_value("Fc1ccccc1OCCc1cc(C2CCNC2)n[nH]1 (stereo not drawn)")
-26.8
>>> measured_value("CNC(=O)c1cc2c(nc1NCC(C)C)CCN(c1ncccn1)CC2")
-157
>>> measured_value("O=C(Cn1ncc2c(c1=O)CCCC2)Nc1cccc2[nH]ccc12")
3.16
>>> measured_value("CCC1=N[C@@]2(CC[C@@H]3CN(Cc4ccccc4F)C[C@@H]32)C(=O)N1")
-1.22
>>> measured_value("CN(C)CC1CN(Cc2ccsc2)Cc2nccn2C1 (stereo not drawn)")
1.72
>>> measured_value("Cn1ccnc1SCCNc1nccc(C(F)(F)F)n1")
-51
>>> measured_value("Cc1nnc(NCc2cccc(OCc3ccccn3)c2)c(C#N)c1C")
5.93
>>> measured_value("Cn1cccc1C(=O)N1CCn2nnc(COc3cccnc3)c2C1")
-69.7
>>> measured_value("Cc1cc(Cc2ccccc2F)cc(C2CCCNC2)n1 (stereo not drawn)")
0.00505
>>> measured_value("COc1ccccc1CC1CCCN(CC(=O)NC2CC2)C1 (stereo not drawn)")
6.75
>>> measured_value("CN(Cc1ccccn1)C(=O)CNC(=O)N1CCc2ccccc2C1")
2.8
>>> measured_value("COc1cccc(CCNS(=O)(=O)c2ccc(NC(C)=O)cc2)c1")
1.54
>>> measured_value("Cc1ccc2c(n1)N(Cc1cccnc1)CCN(C1CCOCC1)C2")
-71.6
>>> measured_value("Cc1c(CN2CC[C@@H](N3CCC(O)CC3)[C@H](O)C2)[nH]c2ccc(F)cc12")
4.07
>>> measured_value("N#Cc1ccccc1CN1CCC(c2nccn2CC(N)=O)CC1")
-8.61
>>> measured_value("COc1ccc(CN2C[C@@H]3COC[C@@H](N4CCN(C)CC4)[C@@H]3C2)cc1")
-103
>>> measured_value("CCn1c(C)nnc1SCCNc1nc(C)ncc1S(C)(=O)=O")
-4.19

----------
Below, each entry is listed with its recorded cytotoxicity at 10 µM.
- Protocol description: Toxicity liver stage against HepG2, at 10uM
- Type: cell-based
- Design: test concentration 10 uM, cell line HepG2-A16-CD81EGFP
- Study conditions: human, HepG2-A16-CD81EGFP cells; read-out: INHIBITION
Measured property: cytotoxicity at 10 µM (%)

>>> measured_value("COCc1cccc(C(=O)N2C[C@@H]3CC[C@H]2CN(Cc2cscn2)C3)n1")
5.01
>>> measured_value("Cc1cc(CNC(=O)N2CCN(c3ccccc3)CC2)no1")
5.27
>>> measured_value("CN(Cc1ccccn1)C(=O)Nc1cc(C(F)(F)F)c[nH]c1=O")
8.36
>>> measured_value("CCOCCn1nc(C)cc1C(=O)N1CCOCC(CO)C1 (stereo not given)")
-20
>>> measured_value("CC(C)c1nc(C2CCCN(C(=O)c3cccc4c3OCO4)C2)no1 (stereo not given)")
-12
>>> measured_value("Cn1cccc1C(=O)NCc1cn2c(n1)CN(C(=O)c1ccsc1)CC2")
-112
>>> measured_value("Cc1nnsc1C(=O)NCc1nn(C2CCCC2)c2c1CCCC2")
-0.543
>>> measured_value("CSc1nc2cc(C)n(CC(N)=O)c2c(=O)n1CC(C)C")
-11.3
>>> measured_value("Cc1nc(N2CCOCC2)nc(C)c1NC(=O)c1ccco1")
1.9
>>> measured_value("O=C(Nc1cccc(N2CCN(CC3CC3)CC2)c1)C1CCOC1 (stereo not given)")
1.68

----------
- Protocol description: Toxicity liver stage against HepG2, at 10uM
- Format: cell-based
- Set-up: test concentration 10 uM, cell line HepG2-A16-CD81EGFP
- Study conditions: human, HepG2-A16-CD81EGFP cells; read-out: INHIBITION
Measured property: cytotoxicity at 10 µM (%)

>>> measured_value("CC(C)CCN(C)Cc1nc2c(cnn2C)c(=O)[nH]1")
-11.2
>>> measured_value("CC(O)c1cccc(OCc2ccon2)c1 (centres undefined)")
-5.28
>>> measured_value("COc1ccccc1C1CC(=O)Nc2c1c(=O)[nH]n2C(C)C (centres undefined)")
-4.08
>>> measured_value("CN(C)C[C@@H]1CN(C(=O)Cc2ccccc2)C[C@@H]1CO")
-1.07

----------
- Protocol description: Toxicity liver stage against HepG2, at 10uM
- Type: cell-based
- Parameters: test concentration 10 uM, cell line HepG2-A16-CD81EGFP
- Study conditions: human, HepG2-A16-CD81EGFP cells; read-out: INHIBITION
Measured property: cytotoxicity at 10 µM (%)

>>> measured_value("Cc1ccc2c(c1)C(NC(C)C)CC21CCNCC1 (stereo not given)")
-10.6
>>> measured_value("Cc1c(Br)cnn1CC(=O)Nc1ccon1")
10.8
>>> measured_value("CC(C)(C)OC(=O)N[C@@H]1C[C@@H](O)CN(C(=O)c2ccc(F)cc2)C[C@H]1O")
2.57
>>> measured_value("CCCOc1ccc(CCC(=O)Nc2nonc2C)cc1")
-7.24
>>> measured_value("CC(C)=CCCC1(C)C=Cc2c(cc(C)n(CC(=O)O)c2=O)O1 (stereo not given)")
-2.72

----------
- Protocol description: Toxicity liver stage against HepG2, at 10uM
- Type: cell-based
- Design: test concentration 10 uM, cell line HepG2-A16-CD81EGFP
- Study conditions: human, HepG2-A16-CD81EGFP cells; read-out: INHIBITION
Below, each entry is listed with its recorded cytotoxicity at 10 µM.
Measured property: cytotoxicity at 10 µM (%)

>>> measured_value("O=C(C1CCC1)N1CCC(=O)N(C2CC2)Cc2cc(F)ccc21")
-7.76
>>> measured_value("Cc1cscc1C(=O)N1CCCC1CC(=O)c1cnn(C)c1 (stereo not given)")
-3.4
>>> measured_value("c1cnc(N2CCO[C@H]3CN(Cc4csnn4)C[C@H]32)nc1")
-70.7
>>> measured_value("Cc1cc(Nc2cnccn2)cc(C2CCCN2)n1 (stereo not given)")
2.54
>>> measured_value("Cc1cnn(CC2CCCN2CC(=O)N(C)CCC#N)c1 (stereo not given)")
7

----------
- Protocol description: Toxicity liver stage against HepG2, at 10uM
- Type: cell-based
- Set-up: test concentration 10 uM, cell line HepG2-A16-CD81EGFP
- Study conditions: human, HepG2-A16-CD81EGFP cells; read-out: INHIBITION
Measured property: cytotoxicity at 10 µM (%)

>>> measured_value("CC(C)c1cccc(-n2cc(O)c(C(=O)NCCCn3cccn3)n2)c1")
-1.59
>>> measured_value("CC(NC1CCN(C(=O)C2CCCCC2)CC1)c1nccs1 (stereo not drawn)")
-4.22
>>> measured_value("O=C(CNC(=O)c1c[nH]c2ccccc12)NCCCn1ccnc1")
-11.1

----------
- Protocol description: Toxicity liver stage against HepG2, at 10uM
- Assay type: cell-based
- Set-up: test concentration 10 uM, cell line HepG2-A16-CD81EGFP
- Study conditions: human, HepG2-A16-CD81EGFP cells; read-out: INHIBITION
Below, each entry is listed with its recorded cytotoxicity at 10 µM.
Measured property: cytotoxicity at 10 µM (%)

>>> measured_value("CCN(CC)S(=O)(=O)N1CCCC1c1cccc(Nc2ncc(C)s2)n1 (stereo not given)")
-39.3
>>> measured_value("Cc1ccccc1C1(C(=O)N2CCCC(n3cncn3)C2)CC1 (stereo not given)")
-4.37
>>> measured_value("CN(CCn1cnnc1)S(=O)(=O)c1ccc(C(F)(F)F)nc1")
6.71
>>> measured_value("CN1CC(=O)N(C2CCNCC2)Cc2c(NCC(C)(C)C)ncnc21")
6.2
>>> measured_value("CC(Nc1ncnc2c1CCNC2)c1ccc2c(c1)CCCC2 (stereo not given)")
42
>>> measured_value("NC(=O)c1ccc(C(=O)N2CCCCC2C2OCCO2)cc1 (stereo not given)")
-0.966
>>> measured_value("O=C(CN(C1=NCCCCC1)c1ccc(Cl)cc1)c1ccccc1")
12.2
>>> measured_value("CCC(CC)CN1CCC2(CCC(=O)N2OCc2ccccc2F)CC1")
6.69
>>> measured_value("CN(Cc1ccco1)[C@@H]1CN(C(=O)c2ccnnc2)C[C@@H]2CCCO[C@@H]21")
-10.5
>>> measured_value("CCOC1CCN(C(=O)c2csc(S(N)(=O)=O)c2)CC1")
-11.4
>>> measured_value("CCn1ncc2c1C(COCC1CC1)CN(C(=O)c1ccncn1)C2 (stereo not given)")
-74.8
>>> measured_value("CCn1nc(C)c2nc(C)nc(NC3CCCC3)c21")
9.12
>>> measured_value("c1csc(CN2CCOCC3(CCN(C4CCOCC4)C3)C2)n1 (stereo not given)")
0.487
>>> measured_value("CC(C)C1CN(c2ncccn2)CCC(=O)N1CC1CC1 (stereo not given)")
0.0666
>>> measured_value("CCc1nc(C)c(C(=O)NCC2COc3cc(OC)ccc3C2)o1 (stereo not given)")
54.6
>>> measured_value("Cc1nc(N2CCN(C(=O)c3ccccc3)CC2)c2cnn(C)c2n1")
-11.5
>>> measured_value("CC(C)c1nccn1CCCNC(=O)c1ccc(-c2cccnc2)nc1")
-11.8
>>> measured_value("CC(C)(C)C(Cn1ccnc1)NC(=O)NCc1ccco1 (stereo not given)")
-1.85
>>> measured_value("CC(C)c1nccn1C1CCCN(C(=O)CCNS(C)(=O)=O)C1 (stereo not given)")
-3.71
>>> measured_value("CN(c1ccc(C(N)=O)nn1)C1CCC1")
9
>>> measured_value("CC(O)CN1CCN(C(=O)CCOC(C)C)CC1 (stereo not given)")
-3.86
>>> measured_value("COCc1ncc(CN2CCC(Oc3ccccc3OC)CC2)cn1")
-1.77
>>> measured_value("CCN1CCOCC12CCN(c1nccs1)CC2")
-107
>>> measured_value("COc1ccc(CNC(=O)c2cc3c(nc2O)CCC(C)C3)cc1 (stereo not given)")
-6.1
>>> measured_value("Cc1cc(C(=O)N2CC[C@@H]3CN(c4ncccn4)CCO[C@@H]3C2)c(C)o1")
3.52
>>> measured_value("CC(NC(=O)c1cccs1)C(=O)NS(=O)(=O)Cc1ccc(C#N)cc1 (stereo not given)")
5.29
>>> measured_value("CN1CC(=O)N(c2ccccc2)CC12CCN(Cc1cccnc1)C2 (stereo not given)")
-2.09
>>> measured_value("CN(C)S(=O)(=O)N1CCCC(c2cccc(Cc3ccccc3F)n2)C1 (stereo not given)")
40.4
>>> measured_value("CN1CC(=O)N(c2cccc(F)c2)CC12CCN(Cc1cncn1C)C2 (stereo not given)")
-0.791
>>> measured_value("CN(CCc1cccs1)C(=O)Nc1cnn(CC2CCCO2)c1 (stereo not given)")
-2.66
>>> measured_value("CCNc1nnc(CCn2nc(C)c(Br)c2C)s1")
2.14
>>> measured_value("O=C1OCCN1CC(=O)N1C[C@@H]2CC[C@H]1CN(C(=O)c1cccnc1)C2")
11.6
>>> measured_value("Cn1ccc2cc(C(=O)NC3CCOC(C)(C)C3)ccc21 (stereo not given)")
1.67
>>> measured_value("Cn1c(N)c2c(=O)n(C)c(-c3ccc(Cl)cc3)cc2c(C#N)c1=O")
-8.91
>>> measured_value("CCN1CCOC(CNCc2cnc(N(CC)CC)s2)C1 (stereo not given)")
0.598
>>> measured_value("Cn1cnc(S(=O)(=O)NCC2(O)CCc3ccccc32)c1 (stereo not given)")
11.6
>>> measured_value("Cc1cc(C)nc(C2CCCN2C(=O)c2cnco2)n1 (stereo not given)")
-1.45
>>> measured_value("O=S(=O)(N1CCCCCC1)N1CCc2sccc2C1")
-5.6
>>> measured_value("COc1cc(CN2C[C@@H]3CNC(=O)[C@H](C)[C@@H]3C2)cc(OC)c1")
0.405
>>> measured_value("CN(C)CC1CN(CC(=O)N2CCc3ccccc32)CCO1 (stereo not given)")
-1.61

Hello, the source for this data is ChEMBL document CHEMBL4513216, in case you need it.
